Tested on: Mycobacterium marinum
TEST_METHOD_NOTES: Antibacterial activity against Mycobacterium marinum measured after 7 days by resazurin microtiter assay
Format: functional
MEASUREMENT_CONDITIONS: 168 h, time 7 day
MIC90 less than 1 µM is rule met; MIC90 greater than or equal to 1 µM is rule not met.

These recorded examples may help you get a feel for the data.
- COMPOUND: "CCOC(=O)c1cn(C)c2c(cc([N+](=O)[O-])c3cccnc32)c1=O"
  CLASS: "rule met"
- COMPOUND: "Cn1cc(C(=O)O)c(=O)c2cc([N+](=O)[O-])c3cccnc3c21"
  CLASS: "rule met"
- COMPOUND: "CCn1cc(C(=O)O)c(=O)c2cc([N+](=O)[O-])c3cccnc3c21"
  CLASS: "rule not met"

Ask: # strict comparison: is reported MIC90 < 1 µM? input = CC1COc2c(N3CCN(C)CC3)c(F)cc3c(=O)c(C(=O)O)cn1c23 (stereo unspecified) [OFLOXACIN]
Result: rule not met

Ask: I wonder whether CCOC(=O)c1cn(CC)c2c(cc([N+](=O)[O-])c3cccnc32)c1=O has MIC90 below 1 µM. Can you tell?
Result: rule met

Ask: Please indicate whether the reported MIC90 of NCC[C@H](O)C(=O)N[C@@H]1C[C@H](N)[C@@H](O[C@H]2O[C@H](CN)[C@@H](O)[C@H](O)[C@H]2O)[C@H](O)[C@H]1O[C@H]1O[C@H](CO)[C@@H](O)[C@H](N)[C@H]1O [AMIKACIN] is strictly below 1 µM.
Result: rule not met
